Study system: Peroxisome proliferator-activated receptor alpha (Homo sapiens)
Sequence (Q07869 whole entry): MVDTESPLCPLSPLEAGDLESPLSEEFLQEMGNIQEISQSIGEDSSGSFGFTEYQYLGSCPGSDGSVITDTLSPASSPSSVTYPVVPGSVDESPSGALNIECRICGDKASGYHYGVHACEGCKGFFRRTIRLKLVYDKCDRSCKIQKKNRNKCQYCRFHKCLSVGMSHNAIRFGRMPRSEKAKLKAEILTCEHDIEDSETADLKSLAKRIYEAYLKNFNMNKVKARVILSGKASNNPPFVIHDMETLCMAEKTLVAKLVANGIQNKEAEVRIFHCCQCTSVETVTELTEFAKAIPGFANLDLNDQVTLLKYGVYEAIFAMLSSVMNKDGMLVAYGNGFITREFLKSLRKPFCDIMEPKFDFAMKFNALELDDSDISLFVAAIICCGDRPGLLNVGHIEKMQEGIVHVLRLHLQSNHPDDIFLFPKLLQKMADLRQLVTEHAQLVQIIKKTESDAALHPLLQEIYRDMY
Experimental protocol: Agonist activity at PPARalpha by FRET assay
Listing of entries alongside the reported pEC50.
Reminder that pEC50 is minus the log10 of a molar concentration.

INSERT INTO results (compound, study_system, quantitative_readout) VALUES
  ('Cc1oc(-c2ccc(Cl)cc2)nc1CCOc1ccc2c(c1)CC[C@H]2CC(=O)O', 'Peroxisome proliferator-activated receptor alpha (Homo sapiens)', 5.93);

Fill in the blank: the reported pEC50 of CCc1ccc(-c2nc(C)c(CCOc3ccc4c(c3)CC[C@H]4CC(=O)O)n2C)cc1 is ____.
5.00

And COc1ccc(-c2nc(C)c(CCOc3ccc4c(c3)CC[C@H]4CC(=O)O)n2C)cc1 ?
5.00

And Cc1cccc(-c2nc(CCOc3ccc4c(c3)CC[C@H]4CC(=O)O)c(C)s2)c1 ?
5.17

And COc1cccc(-c2nc(CCOc3ccc4c(c3)CC[C@H]4CC(=O)O)c(C)o2)c1 ?
5.72

And Cc1nc(-c2ccc(-c3ccccc3)cc2)n(C)c1CCOc1ccc2c(c1)CC[C@H]2CC(=O)O ?
5.00

And CCC(C(=O)O)C1CCc2cc(OCCc3nc(-c4ccccc4)oc3C)ccc21 (centres undefined) ?
6.89

And Cc1ccc(-c2nc(CCOc3ccc4c(c3)CC[C@H]4CC(=O)O)c(C)o2)cc1 ?
6.35

And COc1ccc(-c2nc(CCOc3ccc4c(c3)CC[C@H]4CC(=O)O)c(C)n2C)cc1 ?
5.00

And Cc1nc(-c2ccccc2)n(C)c1CCOc1ccc2c(c1)CC[C@H]2CC(=O)O ?
5.00

And Cc1oc(-c2ccccc2)nc1CCOc1ccc2c(c1)CCC2CC(=O)O (centres undefined) ?
6.05

And Cc1sc(-c2ccc(C(C)C)cc2)nc1CCOc1ccc2c(c1)CC[C@H]2CC(=O)O ?
6.25

And CCCc1oc(-c2ccccc2)nc1CCOc1ccc2c(c1)CC[C@H]2CC(=O)O ?
5.00

And Cc1sc(-c2ccc(Cl)cc2)nc1CCOc1ccc2c(c1)CC[C@H]2CC(=O)O ?
5.00
